ASSAY_TARGET: CYP3A4 (Homo sapiens)
Sequence (P08684 whole entry): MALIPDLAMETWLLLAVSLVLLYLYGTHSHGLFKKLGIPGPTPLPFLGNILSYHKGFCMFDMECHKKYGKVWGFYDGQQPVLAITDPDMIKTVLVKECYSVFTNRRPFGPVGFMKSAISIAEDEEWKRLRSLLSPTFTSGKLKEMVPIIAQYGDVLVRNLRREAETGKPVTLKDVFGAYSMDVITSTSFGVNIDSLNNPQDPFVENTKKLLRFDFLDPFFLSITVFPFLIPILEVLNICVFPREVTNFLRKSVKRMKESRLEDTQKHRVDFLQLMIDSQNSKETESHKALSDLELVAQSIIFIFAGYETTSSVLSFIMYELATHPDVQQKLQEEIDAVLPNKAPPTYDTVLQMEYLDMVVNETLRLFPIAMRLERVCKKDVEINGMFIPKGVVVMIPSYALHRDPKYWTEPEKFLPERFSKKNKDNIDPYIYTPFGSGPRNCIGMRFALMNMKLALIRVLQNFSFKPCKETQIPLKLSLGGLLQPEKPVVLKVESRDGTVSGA
MEASUREMENT_NOTES: Inhibition of CYP3A4 in human liver microsomes using midazolam and testosterone as substrates at 10 uM incubated for 10 min by LC-MS/MS analysis relative to control
Format: ADME, Microsome
TEST_SETTINGS: probe midazolam and testosterone
ATTRIBUTE_MEASURED: inhibition at 10 min, 10 µM (%)
Write the number in % without appending the unit.

Fill blank: measured inhibition at 10 min, 10 µM of the compound COc1ccc(C(=O)C(Cn2ccnc2)NC(=O)c2cnc(-c3cccc(F)c3)nc2)cc1 (racemic) is ____.
92.3

* * *

ASSAY_TARGET: UniProt P05177
Sequence (P05177 whole entry): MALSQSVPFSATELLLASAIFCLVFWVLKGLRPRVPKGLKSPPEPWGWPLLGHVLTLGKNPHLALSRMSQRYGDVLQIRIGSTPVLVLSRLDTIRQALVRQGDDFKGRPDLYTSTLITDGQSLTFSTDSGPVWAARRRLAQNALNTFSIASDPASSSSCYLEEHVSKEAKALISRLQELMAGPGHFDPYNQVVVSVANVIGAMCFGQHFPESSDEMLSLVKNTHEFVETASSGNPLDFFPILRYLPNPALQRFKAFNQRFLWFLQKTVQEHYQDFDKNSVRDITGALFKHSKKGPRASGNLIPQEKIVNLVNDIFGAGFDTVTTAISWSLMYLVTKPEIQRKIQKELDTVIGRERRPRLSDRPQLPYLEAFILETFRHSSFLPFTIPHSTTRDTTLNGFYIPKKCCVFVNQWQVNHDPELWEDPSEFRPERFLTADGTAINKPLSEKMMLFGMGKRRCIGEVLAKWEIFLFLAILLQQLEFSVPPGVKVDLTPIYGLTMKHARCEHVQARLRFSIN
MEASUREMENT_NOTES: Inhibition of CYP1A2 in human liver microsomes using phenacetin as substrate at 10 uM incubated for 10 min by LC-MS/MS analysis relative to control
Type: ADME, Microsome
TEST_SETTINGS: probe phenacetin
ATTRIBUTE_MEASURED: inhibition at 10 min, 10 µM (%)
Write the number in % without appending the unit.

Fill blank: measured inhibition at 10 min, 10 µM of the compound COc1ccc(C(=O)C(Cn2ccnc2)NC(=O)c2cnc(-c3cccc(F)c3)nc2)cc1 (racemic) is ____.
38.4

* * *

ASSAY_TARGET: CYP2C19 (Homo sapiens)
Sequence (P33261 whole entry): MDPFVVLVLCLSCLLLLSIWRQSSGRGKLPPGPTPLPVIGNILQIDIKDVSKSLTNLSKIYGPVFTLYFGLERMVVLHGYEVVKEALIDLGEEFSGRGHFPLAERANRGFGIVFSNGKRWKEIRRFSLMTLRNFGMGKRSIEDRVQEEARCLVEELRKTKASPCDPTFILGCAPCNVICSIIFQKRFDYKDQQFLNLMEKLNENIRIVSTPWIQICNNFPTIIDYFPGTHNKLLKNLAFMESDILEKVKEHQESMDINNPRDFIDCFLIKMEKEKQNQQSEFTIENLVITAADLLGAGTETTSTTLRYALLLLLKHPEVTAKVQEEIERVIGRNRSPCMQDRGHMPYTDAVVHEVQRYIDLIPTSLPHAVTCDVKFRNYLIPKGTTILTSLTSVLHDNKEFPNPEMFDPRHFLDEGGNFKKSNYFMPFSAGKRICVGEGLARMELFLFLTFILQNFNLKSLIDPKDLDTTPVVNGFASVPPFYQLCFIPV
MEASUREMENT_NOTES: Inhibition of CYP2C19 in human liver microsomes using S-mephenytoin as substrate at 10 uM incubated for 10 min by LC-MS/MS analysis relative to control
Assay type: ADME, Microsome
TEST_SETTINGS: probe S-mephenytoin
ATTRIBUTE_MEASURED: inhibition at 10 min, 10 µM (%)
Write the number in % without appending the unit.

Fill blank: measured inhibition at 10 min, 10 µM of the compound COc1ccc(C(=O)C(Cn2ccnc2)NC(=O)c2cnc(-c3cccc(F)c3)nc2)cc1 (racemic) is ____.
89.4
